assay: Fluorescence quantum yields and fluorescence lifetimes in water and methanol; format: physicochemical; conditions: fluorescence lifetime, column after φf in CH3OH; Table 2
Recorded τ (ns) by entry

Some solved entries appear below for comparison.
**Query** // query τ (ns) value for entry C[N+](C)(C)CCCOc1cc(C#Cc2ccccc2)c(OCCC[N+](C)(C)C)cc1C#Cc1ccccc1.[Cl-].[Cl-] [S-OPE-1 (H)]
**Result** 1.4 ns

**Query** // query τ (ns) value for entry CCOC(=O)c1ccc(C#Cc2cc(OCCC[N+](C)(C)C)c(C#Cc3ccccc3)cc2OCCC[N+](C)(C)C)cc1.[Cl-].[Cl-] [N-OPE-1]
**Result** 1.6 ns

**Query** // query τ (ns) value for entry CCOC(=O)c1ccc(C#Cc2cc(OCCC[N+](C)(C)C)c(C#Cc3ccc(C(=O)OCC)cc3)cc2OCCC[N+](C)(C)C)cc1.[Cl-].[Cl-] [S-OPE-1 (COOEt)]
**Result** 1.4 ns

Now consider a different compound.
**Query** // query τ (ns) value for entry C[N+](C)(C)CCCOc1cc(C#Cc2ccc(C(=O)[O-])cc2)c(OCCC[N+](C)(C)C)cc1C#Cc1ccc(C(=O)[O-])cc1 [S-OPE-1 (COO—)]
**Result** 1.3 ns
